B1: TRIM39 (parent)
chain: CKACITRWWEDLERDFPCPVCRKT

Variants of: B1
Assay: protein stability index of a GFP-peptide fusion (GPS, HEK-293T) (PSI 1-6); higher = more stable;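 note: lentivirally expressed fusions sorted by FACS into six bins by GFP to DsRed ratio, PSI derived from sequencing read proportions per bin multiplied by bin number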
Settings: c terminus: a fixed tail appended
ENDPOINT LABEL: protein stability index
Please reply with the number alone, leaving off any unit.

Consider the reported protein stability index for these variants:
Input: Can you share its protein stability index? I mean this variant: CKACITRWWEDLERDFDCPVCRKT [P17D]
Output: 3.5

Input: Any idea what protein stability index was measured for CKACITRWWEDTERDFPCPVCRKT [L12T] ?
Output: 4.45

Input: May I ask what protein stability index has been recorded for CKACITRLWEDLERDFPCPVCRKT [W8L] ?
Output: 4.19

Input: Give the measured protein stability index of CKACITRWWEDLERDFPCPVLRKT [C21L] .
Output: 1.62

Further cases:
Input: Reported protein stability index, variant CKACITRWWEDLEKDFPCPVCRKT [R14K] : ____
Output: 4.03

Input: Endpoint output: protein stability index of CKACITRWWEDLMRDFPCPVCRKT [E13M] . Value?
Output: 2.95

Input: Give its protein stability index value. Item: CKACIQRWWEDLERDFPCPVCRKT [T6Q]
Output: 3.77

Input: // returns reported protein stability index for input CKACITRWWEDLERTFPCPVCRKT [D15T]
Output: 3.06

Input: Give the measured protein stability index of CKACITRWWEDLERDFPCPVCMKT [R22M] .
Output: 3.72

Input: If you can, please state the reported protein stability index value of CKACITRWMEDLERDFPCPVCRKT [W9M] .
Output: 4.11
